assay.notes: Metabolic stability in human liver microsomes assessed as intrinsic clearance
result.type: CLint (µL/min/mg)
# output: bare number, implied unit µL/min/mg

Any idea what CLint was measured for COc1cc(-c2noc([C@H](C)NC(=O)c3cc(C(F)(F)F)nn3C)n2)cc(C)n1 ?
10

Any idea what CLint was measured for CNc1cc(-c2noc([C@H](C)NC(=O)c3cc(C(F)(F)F)nn3C)n2)ccn1 ?
28

Any idea what CLint was measured for C[C@H](NC(=O)c1cc(C(F)(F)F)nn1C)c1nc(-c2ccnc(N3CCCC3)c2)no1 ?
48

Any idea what CLint was measured for C[C@H](NC(=O)c1cc(C(F)(F)F)nn1C)c1nc(-c2ccnc(N(C)C)c2)no1 ?
56

Any idea what CLint was measured for COC(C)(C)c1cc(-c2noc([C@H](C)NC(=O)c3cc(C(F)(F)F)nn3C)n2)ccn1 ?
21

====

assay.notes: Clearance in CD-1 mouse at 0.5 mg/kg, iv
Format: ADME, organism-based
particulars: in vivo
result.type: clearance (mL/min/kg)
# output: bare number, implied unit mL/min/kg

Any idea what clearance was measured for C[C@H](NC(=O)c1cc(C(F)(F)F)nn1C)c1nc(-c2ccnc(C(F)(F)F)c2)no1 ?
2

====

assay.notes: Volume of distribution at steady state in CD-1 mouse at 0.5 mg/kg, iv
Assay type: ADME, organism-based
particulars: in vivo, read-out: Vdss
result.type: Vd (L/kg)
# output: bare number, implied unit L/kg

Any idea what Vd was measured for C[C@H](NC(=O)c1cc(C(F)(F)F)nn1C)c1nc(-c2ccnc(C(F)(F)F)c2)no1 ?
1.88

====

assay.notes: Lipophilicity, log D of compound
Assay type: physicochemical
particulars: octanol/water
Would you mind telling me the reported logD of each entry?

Any idea what logD was measured for COc1cc(-c2noc([C@H](C)NC(=O)c3cc(C(F)(F)F)nn3C)n2)cc(C)n1 ?
4.4

Any idea what logD was measured for C[C@H](NC(=O)c1cc(C(F)(F)F)nn1C)c1nc(-c2ccnc(C(F)(F)F)c2)no1 ?
3.6

Any idea what logD was measured for CNc1cc(-c2noc([C@H](C)NC(=O)c3cc(C(F)(F)F)nn3C)n2)ccn1 ?
3.4

Any idea what logD was measured for COC(C)(C)c1cc(-c2noc([C@H](C)NC(=O)c3cc(C(F)(F)F)nn3C)n2)ccn1 ?
3.8

Any idea what logD was measured for COc1cc(-c2noc([C@H](C)NC(=O)c3cc(C(F)(F)F)nn3C)n2)ccn1 ?
3.4

Any idea what logD was measured for C[C@H](NC(=O)c1cc(C(F)(F)F)nn1C)c1nc(-c2ccnc(N(C)C)c2)no1 ?
3.9

Any idea what logD was measured for Cc1cc(-c2noc([C@H](C)NC(=O)c3cc(C(F)(F)F)nn3C)n2)ccn1 ?
3.3

Any idea what logD was measured for C[C@H](NC(=O)c1cc(C(F)(F)F)nn1C)c1nc(-c2ccnc(N3CCCC3)c2)no1 ?
4.2

Any idea what logD was measured for COCc1cc(-c2noc([C@H](C)NC(=O)c3cc(C(F)(F)F)nn3C)n2)ccn1 ?
3

Any idea what logD was measured for C[C@H](NC(=O)c1cc(C(F)(F)F)nn1C)c1nc(-c2ccnc(C3CC3)c2)no1 ?
4.1

Any idea what logD was measured for C[C@H](NC(=O)c1cc(C(F)(F)F)nn1C)c1nc(-c2ccnc(C(F)F)c2)no1 ?
3.4

Origin of measurements: ChEMBL document CHEMBL4706729
